Assay: Evaluation of pharmacokinetic parameters for Felodipine following single oral administration of Felodipine immediate or extended-release tablets
Type: ADME, organism-based
Parameters: dose 10 mg, dose 20 mg, route oral
Conditions: human, in vivo; dosed compound id 10, dosed compound name FELODIPINE, regimen Single dose, route oral, tissue Plasma
readout_type: Tmax

QUERY: May I ask what Tmax has been recorded for CCOC(=O)C1=C(C)NC(C)=C(C(=O)OC)C1c1cccc(Cl)c1Cl (stereo unspecified) ?
RESULT: 2.5 to 5 h

* * *

Test: Evaluation of pharmacokinetic parameters for Felodipine following single oral administration of Felodipine immediate or extended-release tablets
Type: ADME, organism-based
Set-up: dose 10 mg, dose 20 mg, route oral
Conditions: human, in vivo; dosed compound id 10, dosed compound name FELODIPINE, regimen Single dose, route oral, tissue Plasma
readout_type: bioavailability

QUERY: Field request: bioavailability | item: CCOC(=O)C1=C(C)NC(C)=C(C(=O)OC)C1c1cccc(Cl)c1Cl (stereo unspecified)
RESULT: 5%
